Test system: NCI-H520
Assay: relative viability (nuclei count vs DMSO), 5 days (fraction); higher = more cells survive
Details: first compound 0.1581 µM
quantity_kind: relative viability
Just the number, please, no unit after it.

- CC1(C)CCC(c2ccc(Cl)cc2)=C(CN2CCN(c3ccc(C(=O)NS(=O)(=O)c4ccc(N[C@H](CCN5CCOCC5)CSc5ccccc5)c(S(=O)(=O)C(F)(F)F)c4)cc3)CC2)C1 [Navitoclax] + C[C@]1(O)C[C@@H](c2nc(-c3ccc4ccc(-c5ccccc5)nc4c3)c3c(N)nccn32)C1 [Linsitinib] (partner 1 µM): 0.832

Value of relative viability reported for the molecule CC1(C)CCC(c2ccc(Cl)cc2)=C(CN2CCN(c3ccc(C(=O)NS(=O)(=O)c4ccc(N[C@H](CCN5CCOCC5)CSc5ccccc5)c(S(=O)(=O)C(F)(F)F)c4)cc3)CC2)C1 [Navitoclax] + CS(=O)(=O)N1CCN(Cc2cc3nc(-c4cccc5[nH]ncc45)nc(N4CCOCC4)c3s2)CC1 [Pictilisib] (partner 1 µM) is 0.322

For record CC1(C)CCC(c2ccc(Cl)cc2)=C(CN2CCN(c3ccc(C(=O)NS(=O)(=O)c4ccc(N[C@H](CCN5CCOCC5)CSc5ccccc5)c(S(=O)(=O)C(F)(F)F)c4)cc3)CC2)C1 [Navitoclax] + N=C(N)NC(=N)NCCc1ccccc1 [Phenformin] (partner 250 µM) the listed relative viability is 0.507
